Just for reference, the nanobody polyreactivity screen of Harvey et al. (2022) is where these values come from.

- Protocol Description: yeast display, Sf9 membrane polyspecificity reagent, FACS + sequencing; frameworks hold sequencing errors
Measure: polyreactivity (PSR sort gate)

Sequence Input	polyreactivity (PSR sort gate)
QVQLVESGGGLVQAGGSLRLSCAASGRIFPANDMGWYRQAPGKERELVASIRRGGITYADSVKGRFTISRDNAKNTVYLQMNSLKPEDNAVYYCNADYRGWGYHMDYWGQGTQVTVSS	low polyreactivity
QVQLVESGGGLVQAGGSLRLSCAASGRIFQYYAMGWYRQAPGKERELVASISGRGGRTYYADSVKGRLTISRDNAKNTVYLQMNSLKPEDTAVYYCNAVFSTIRYIRSYNYWGQGTQVTVSS	high polyreactivity
QVQLVESGGGLLQAGGSLRLSCASSGRTFARYVMGWYRQAPGKERELVAAITRSGGSTYYADSVKGRFTISRDNAKNTVYLQMNSMKPEDTAVYYCAATLRWGLYNTFYSTFNVSYYYWGQGTQVTVSS	high polyreactivity
QVQLVESGGGLVQAGGSLRLSCAASGSTFAYNTMGWYRKAPGKERELVAAITQLGGSTYADSVKGRFTISRDNAKNTVYLQINSLKPEENAVYYCAADGYTYKFDYWGQGTQVTVSS	low polyreactivity

Quick one: polyreactivity (PSR sort gate) of `QVQLVESGGGLVQAGGSLRLSCAASGRIFDGNAMGWYRQAPGKERELVATITRGGRTNYADSVKGRFTISRDNAKNTVYLQMNSLKPEDTAVYYCNARGSERVDTYSLYDYWGQGTQVTVSS` ? low polyreactivity

Another sequence: `QVQLVESCGCLVQAGGSLRLSCAASGSTFRKYAMGWYRQAPGKEREFVAAITWSTGTTYYADSVKGRFTISRDNAKNTVYLQMNSLKPEDTAVYYCAADSQPPHELYESIEHESWGQGTQVTVSS` low polyreactivity

Another sequence: `QVQLVESGGGLVQAGGSLRLSCAASGSIFDYNAMGWYRQAPGKVRELVAAITGSGGSTYYADSVKGRFTISRDNAKNTVYLQMNSLTAEDTAVYYCAAPVDYRRYEYEYWGQGTQVTVSS` low polyreactivity

Another sequence: `QVQLVESGGGLVQAGGSLRLRCAASGSTFRQYAMGWYRQAPGKERELVAAISSGGRTNYADSVKGRFTISRDNAKNTVYLQMNSLKPEDTAVYYCAADIRRRVPVRGYYYWGQGTQVTVSS` high polyreactivity

Another sequence: `QVQLVESGGGLVQAGGSLRLSCAASGSTFGVNAMGWYRQAPGKERELVAAISVSGGRTYYADSVKGRFTISRDNAKNTVYLLMNSLKPEDTAVYYCAATTYIWPYDYWGQGTQVTVSS` low polyreactivity

Another sequence: `QVHLVESGGGLVQAGGSLRLSCASSGSIFGPYVMGWYRQAPRKERELVAAITWNGGSTNYADSLKGRFTISRDNAKNTVYLQMNSLKPEETAVYYCNTVSWPLSSKYYYWGQGTQVSVSS` high polyreactivity

Another sequence: `QVQLVESGGGLVQAGGSLRLSCAASGRIFGNNAMAWYRQATGKESELVAGISRTGGSTYYADSVKGRFTISRDNAKNTVYLQMNSLKPEDTAVFYCAALVYSGRYASYGYWGQGTQVTVSS` low polyreactivity

----------
- Protocol Description: yeast display, Sf9 membrane polyspecificity reagent, FACS + sequencing; frameworks hold sequencing errors

Sequence Input	polyreactivity (PSR sort gate)
QVQLVESGGGLVQAGGSLRLSCAASGRTFLWNDMGWYRQAPGKERELVAAITGSDGTYADSVKGRFTISRDNAKNTVYLQMNSLKPEDTAVYYCAAETYGYFPWKYDYWGQGTQVTVSS	low polyreactivity
QVQLEESGGGLVQAGGSLRLSCAASVSIFFVNAMGWYRQAPGKERELVASISRDGSTNYADSVKGRFTISRDNAKNTVYLQMNSLKPEVTAVYYCNGLSADWYPEEDYWGQGTQVTVSS	low polyreactivity
QVQLVESGGGLVQAGGSLRLSCAASGRTFKWYAMGWYRQAPGKERELVAAITTGGNTYYADSVKGRFTISRDNAKNTVYLQMNSLTPEDTAVYYCARVPTQGYNPYEYWGQGTQVTVSS	low polyreactivity
QVQLVESGGGLVQAGGSLRLSCAASGFIFWFNAIGWSRQEPGKEREWVATISWSDTSTYYADSVKGRFTISRDNAKNTVYLQMNSLKPEDTAVYYCATDGRETWLPEYYWGQGTQVTVSS	low polyreactivity
